target: Orai1/STIM1 (Homo sapiens); experiment: Fluorescence-based assay of store-operated calcium entry in Orai1/STIM1 stable cells; details: HEK-293 cells stably expressing human STIM1 and Orai1; 50% inhibition of Peak-Basal fluorescence signal; read-out: Orai1/STIM1 (IC50, μmol)
pIC50: −log10 of the molar value.
quantity: pIC50

Study these solved cases before continuing.
Recorded pIC50 of Cc1nn(-c2nccs2)cc1-c1ccc(NC(=O)c2c(F)cccc2F)s1 , please. > 6.22

Recorded pIC50 of CCc1nn(-c2nccs2)cc1-c1ccc(NC(=O)c2c(F)ccc(F)c2F)cc1F , please. < 5.92

Recorded pIC50 of Cc1nn(-c2nccs2)cc1-c1ccc(NC(=O)c2c(F)cc(F)cc2F)cc1F , please. > 6.22

---
Recorded pIC50 of Cc1nn(-c2ccccc2F)cc1-c1ccc(NC(=O)c2c(F)cccc2F)nc1 , please. > 6.22

Recorded pIC50 of Cc1nn(-c2nccs2)cc1-c1ccc(NC(=O)c2ccccc2F)cc1F , please. > 6.22

Recorded pIC50 of CCc1nn(-c2nccs2)cc1-c1ccc(NC(=O)c2ccccc2F)s1 , please. > 6.22

----------
target: Orai1/STIM1 (Homo sapiens, UniProt Q96D31); test: Fluorescence-based assay of store-operated calcium entry in Orai1/STIM1 stable cells; details: HEK-293 cells stably expressing human STIM1 and Orai1; 50% inhibition of Peak-Basal fluorescence signal; read-out: Orai1/STIM1 (IC50, μmol)
Sequence (Q96D31 whole entry): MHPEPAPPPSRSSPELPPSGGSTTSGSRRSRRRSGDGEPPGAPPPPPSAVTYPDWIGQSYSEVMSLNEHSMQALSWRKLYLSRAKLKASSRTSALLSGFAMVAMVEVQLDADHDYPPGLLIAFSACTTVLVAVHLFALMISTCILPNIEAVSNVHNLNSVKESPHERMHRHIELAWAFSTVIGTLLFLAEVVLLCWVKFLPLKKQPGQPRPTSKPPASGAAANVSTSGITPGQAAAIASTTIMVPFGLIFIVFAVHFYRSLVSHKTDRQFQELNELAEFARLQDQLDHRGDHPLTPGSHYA
// values below are reported IC50

Study these solved cases before continuing.
Recorded IC50 of Cc1ccc(F)c(C(=O)Nc2cnc(-c3cn(-c4nccs4)nc3C)cn2)c1F , please. 600 to 1200 nM

Recorded IC50 of Cc1nn(-c2nccs2)cc1-c1cnc(NC(=O)c2c(F)ccc(F)c2F)cn1 , please. < 600 nM

Recorded IC50 of Cc1ccc(F)c(C(=O)Nc2ccc(-c3cn(-c4ccccc4F)nc3C)cn2)c1F , please. < 600 nM

Turning now to a further compound:
Recorded IC50 of O=C(Nc1ccc(-c2cn(-c3nccs3)nc2C2CC2)cn1)c1c(F)ccc(F)c1F , please. 600 to 1200 nM

----------
target: Orai1/STIM1 (Homo sapiens); construct: expressed in transfected cells; experiment: Fluorescence-based assay of store-operated calcium entry in Orai1/STIM1 stable cells; format: cell-based; conditions: HEK-293 cells stably expressing human STIM1 and Orai1; 50% inhibition of Peak-Basal fluorescence signal; read-out: Orai1/STIM1 (IC50, μmol)
pIC50: −log10 of the molar value.
quantity: pIC50

Study these solved cases before continuing.
Recorded pIC50 of O=C(Nc1ccc(-c2cn(-c3nccs3)nc2C2CC2)cn1)c1c(F)cc(F)cc1F , please. 5.92 to 6.22

Recorded pIC50 of Cc1cn(-c2nccs2)nc1-c1ccc(NC(=O)c2c(F)cccc2F)cc1F , please. < 5.92

Recorded pIC50 of CCc1nn(-c2nccs2)cc1-c1ccc(NC(=O)c2c(C)cccc2F)cc1 , please. 5.92 to 6.22

Recorded pIC50 of Cc1nn(-c2nccs2)cc1-c1ccc(NC(=O)c2ccc(F)c(F)c2F)cc1F , please. > 6.22

Recorded pIC50 of Cc1nn(-c2nccs2)cc1-c1ccc(NC(=O)c2c(F)cccc2F)nc1 , please. > 6.22

---
Recorded pIC50 of Cc1nn(-c2nccs2)cc1-c1ccc(NC(=O)c2c(F)cccc2F)cc1F , please. > 6.22
